# assay.protocol: wn = mass fraction of the nth substance listed
# applied.conditions: 298 K; 101 kPa; Liquid; Vibrating tube method; w1 = 0.005
Overview of reported mass density across a group of compounds:
Write the number in kg/m3 without appending the unit.

{"compound": "CC(C)[C@H](N)C(=O)O [L-valine] + O", "result.unit": "kg/m3", "reading": 998.1}
{"compound": "CSCC[C@H](N)C(=O)O [L-methionine] + O", "result.unit": "kg/m3", "reading": 998.5}
{"compound": "N[C@@H](CO)C(=O)O [L-serine] + O", "result.unit": "kg/m3", "reading": 999.1}

Sample NC(=O)CC[C@H](N)C(=O)O [L-glutamine] + O — what was its mass density? 998.8
